Source listed as patent US20220135638A1.

# target of assay: T1, full-length human GLP-1R (GenBank NM_002062) with an N-terminal FLAG tag on HEK-293T cells (human), P43220
# T1 chain: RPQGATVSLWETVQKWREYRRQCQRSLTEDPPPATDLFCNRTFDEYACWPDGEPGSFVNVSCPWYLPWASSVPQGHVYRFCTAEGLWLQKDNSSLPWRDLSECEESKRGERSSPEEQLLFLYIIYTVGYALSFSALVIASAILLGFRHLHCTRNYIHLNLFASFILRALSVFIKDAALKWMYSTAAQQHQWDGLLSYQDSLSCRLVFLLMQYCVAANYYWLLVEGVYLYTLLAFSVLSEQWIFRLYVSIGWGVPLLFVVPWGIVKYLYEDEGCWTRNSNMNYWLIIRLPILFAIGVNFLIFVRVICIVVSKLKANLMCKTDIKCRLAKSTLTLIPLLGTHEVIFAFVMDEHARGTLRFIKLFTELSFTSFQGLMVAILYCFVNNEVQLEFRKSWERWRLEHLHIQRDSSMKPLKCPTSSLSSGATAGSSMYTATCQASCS
# experiment: cell-based or functional assay
Numbered stars: 1 amine (or outer) side, 2 acyl side, 3 side chain; on linkers, the order of the positions; unused ones are H or OH. Square brackets hold non-standard residues; d marks the D form. Primed or numbered codes have the meaning given here. Side chains are listed from the residue outwards. Ends that are not written are not given here. * marks the point of attachment. C20 diacid = O=C(O)CCCCCCCCCCCCCCCCCCC(=O)*; C18 diacid = O=C(O)CCCCCCCCCCCCCCCCC(=O)*; C16 diacid = O=C(O)CCCCCCCCCCCCCCC(=O)*; γGlu = O=C(O)[C@H](CCC(=O)[*:2])N[*:1]; Iva = CC[C@](C)(N)C(=O)O; PEG3′ = not defined here; Abu = CC[C@H](N)C(=O)O; Aib = CC(C)(N)C(=O)O

[
  {
    "binder": "Y[Aib]EGTFISDYSIALDR[Aib]HQ[Aib]NFVNW[Iva]LAQRPSK([PEG3′-γGlu-C20 diacid])GAPPPS (ends and bridges not checked) [Compound No. 517]",
    "GLP EC50": "> 1 µM"
  },
  {
    "binder": "Y[Aib]EGTFISDYSIALDR[Aib]HQ[Aib]NFVNW[Iva]LAQRPK([PEG3′-γGlu-C18 diacid])SGAPPPS (ends and bridges not checked) [Compound No. 513]",
    "GLP EC50": "> 1 µM"
  },
  {
    "binder": "Y[Aib]EGTFISDYSIALDR[Aib]HQ[Aib]NFVNW[Iva]LAQRK([PEG3′-PEG3′-γGlu-Ida])SSGAPPPS (ends and bridges not checked) [Compound No. 486]",
    "GLP EC50": "> 1 µM"
  },
  {
    "binder": "Y[Aib]EGTFISDYSIALDR[Aib]HQ[Aib]NFVNW[Iva]LAQRPSSGAK([Abu-γGlu-C18 diacid])PPS (ends and bridges not checked) [Compound No. 542]",
    "GLP EC50": "> 1 µM"
  },
  {
    "binder": "Y[Aib]EGTFISDYSIALDR[Aib]HQ[Aib]NFVNW[Iva]LAQRPSK([PEG3′-PEG3′-C20 diacid])GAPPPSR (ends and bridges not checked) [Compound No 900]",
    "GLP EC50": "0.219 µM"
  },
  {
    "binder": "Y[Aib]EGTFISDYSIALDR[Aib]HQ[Aib]NFVNW[Iva]LAQRPSSGAK([PEG3′-γGlu-C18 diacid])PPS (ends and bridges not checked) [Compound No. 525]",
    "GLP EC50": "> 1 µM"
  },
  {
    "binder": "Y[Aib]EGTFISDYSIALDR[Aib]HQ[Aib]NFVNW[Iva]LAQRPSSGAK([Gly-Gly-Gly-Gly-Gly-γGlu-C18 diacid])PPS (ends and bridges not checked) [Compound No. 454]",
    "GLP EC50": "> 1 µM"
  },
  {
    "binder": "Y[Aib]EGTFISDYSIALDR[Aib]HQ[Aib]NFVNW[Iva]LAQRPSSGK([PEG3′-PEG3′-γGlu-C20 diacid])PPPS (ends and bridges not checked) [Compound No. 499]",
    "GLP EC50": "> 1 µM"
  },
  {
    "binder": "Y[Aib]EGTFISDYSIALDR[Aib]HQ[Aib]NFVNW[Iva]LAQRPSSGAPK([γGlu-γGlu-C18 diacid])PS (ends and bridges not checked) [Compound No. 553]",
    "GLP EC50": "> 1 µM"
  },
  {
    "binder": "Y[Aib]EGTFISDYSIALDR[Aib]HQ[Aib]NFVNW[Iva]LAQRPSSGAPK([PEG3′-PEG3′-C16 diacid])PSR (ends and bridges not checked) [Compound No 927]",
    "GLP EC50": "0.436 µM"
  },
  {
    "binder": "Y[Aib]EGTFISDYSIALDR[Aib]HQ[Aib]NFVNW[Iva]LAQRPSSK([PEG3′-PEG3′-γGlu-C20 diacid])APPPS (ends and bridges not checked) [Compound No. 496]",
    "GLP EC50": "> 1 µM"
  },
  {
    "binder": "Y[Aib]EGTFISDYSIALDR[Aib]HQ[Aib]NFVNW[Iva]LAQRPSSGAPPPK([PEG3′-γGlu-C20 diacid]) (ends and bridges not checked) [Compound No. 535]",
    "GLP EC50": "> 1 µM"
  },
  {
    "binder": "Y[Aib]EGTFISDYSIALDR[Aib]HQ[Aib]NFVNW[Iva]LAQRPSK([PEG3′-PEG3′-C18 diacid])GAPPPSR (ends and bridges not checked) [Compound No 899]",
    "GLP EC50": "0.144 µM"
  },
  {
    "binder": "Y[Aib]EGTFISDYSIALDR[Aib]HQ[Aib]NFVNW[Iva]LAQRPSSGK([PEG3′-γGlu-C20 diacid])PPPS (ends and bridges not checked) [Compound No. 523]",
    "GLP EC50": "> 1 µM"
  },
  {
    "binder": "Y[Aib]EGTFISDYSIALDR[Aib]HQ[Aib]NFVNW[Iva]LAQRPSSGAPPPK([PEG3′-γGlu-C16 diacid]) (ends and bridges not checked) [Compound No. 533]",
    "GLP EC50": "0.776 µM"
  },
  {
    "binder": "Y[Aib]EGTFISDYSIALDR[Aib]HQ[Aib]NFVNW[Iva]LAQRPSK([Gly-Gly-Gly-Gly-Gly-γGlu-C16 diacid])GAPPPS (ends and bridges not checked) [Compound No. 444]",
    "GLP EC50": "> 1 µM"
  }
]
